target: Dual specificity mitogen-activated protein kinase kinase 1 (Homo sapiens, UniProt Q02750); assay: Inhibition of full length recombinant human His-tagged MEK1 expressed in baculovirus expression system after 1 hr by TR-FRET based LanthaScreen assay
Sequence (Q02750 whole entry): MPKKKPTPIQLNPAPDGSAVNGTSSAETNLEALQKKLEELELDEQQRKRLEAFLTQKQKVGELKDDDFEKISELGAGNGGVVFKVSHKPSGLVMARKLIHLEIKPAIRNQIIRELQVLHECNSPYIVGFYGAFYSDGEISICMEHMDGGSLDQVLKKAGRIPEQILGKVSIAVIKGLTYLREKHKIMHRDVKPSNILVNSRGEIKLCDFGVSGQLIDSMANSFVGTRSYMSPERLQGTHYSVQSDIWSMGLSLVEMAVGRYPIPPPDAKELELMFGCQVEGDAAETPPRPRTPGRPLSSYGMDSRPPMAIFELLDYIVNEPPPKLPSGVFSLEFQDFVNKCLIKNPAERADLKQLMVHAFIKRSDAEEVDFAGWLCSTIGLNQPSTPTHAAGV
pIC50: −log10 of the molar value.
assay.endpoint: pIC50

Please review the following examples before continuing.
{"smiles": "C=CC(=O)Oc1ccccc1Nc1nc(Nc2ccc(N3CCN(C)CC3)cc2)ncc1Cl", "assay.endpoint": "pIC50", "reading": 7.80}
{"smiles": "C=CC(=O)Nc1cc(NC(C)=O)ccc1Oc1nc(Nc2ccc(N3CCN(C)CC3)cc2)ncc1Cl", "assay.endpoint": "pIC50", "reading": 5.32}
{"smiles": "C=CC(=O)Nc1ccccc1Oc1ccnc(Nc2ccc(N3CCN(C)CC3)cc2)n1", "assay.endpoint": "pIC50", "reading": 5.35}

A = C=CC(=O)Nc1ccccc1Oc1nc(Nc2ccc(N3CCN(C)CC3)cc2)ncc1Cl
B = C=CC(=O)Oc1ccccc1Nc1nc(Nc2cccc(N3CCN(C(C)=O)CC3)c2)ncc1Cl
**Query** Which is greater in pIC50, the first item A or the second item B ? Respond with the label that goes with your answer.
**Result** B

1 = C=CC(=O)Nc1ccccc1-n1ccc2cnc(Nc3ccc(N4CCN(C)CC4)cc3)nc21
2 = C=CC(=O)Oc1ccccc1Nc1nc(Nc2ccc(N3CCOCC3)cc2)ncc1Cl
3 = C=CC(=O)Nc1ccccc1Oc1nc(Nc2ccc(N3CCN(C)CC3)cc2)ncc1C
4 = C=CC(=O)Nc1ccccc1Oc1nc(Nc2ccc(N3CCN(C)CC3)cc2)ncc1C1CC1
**Query** List by increasing pIC50. Output spec: labels arranged per the requested ranking.
**Result** 1, 3, 4, 2
(1: 5.17, 3: 5.79, 4: 6.12, 2: 8.05)

1 = CN1CCN(c2ccc(Nc3ncc(Cl)c(Oc4ccccc4NC(=O)CCl)n3)cc2)CC1
2 = C=CC(=O)Nc1ccccc1Oc1nc(Nc2ccc(N3CCN(C)CC3)cc2)ncc1OC
**Query** Identify the item whose pIC50 is the smaller number: 1 or 2 Respond with the label that goes with your answer.
**Result** 1
